- Test system: DLD1 NRF2-WT
- Measurement Notes: drug sensitivity score (DSS) viability (DSS score); higher = more sensitive; extreme values may be limits of the assay
- Condition Summary: 72 h; CellTiter-Glo viability
Flag rule - drug sensitivity score less than 2 flags Criterion met; the remaining entries get Criterion not met.

Some solved entries appear below for comparison.
CCc1c2c(nc3ccc(O)cc13)-c1cc3c(c(=O)n1C2)COC(=O)[C@]3(O)CC [SN-38]: Criterion not met
C=CC(=O)Nc1cc2c(Nc3ccc(F)c(Cl)c3)ncnc2cc1OCCCN1CCOCC1 [Canertinib]: Criterion not met
CCNC(=O)C[C@@H]1N=C(c2ccc(Cl)cc2)c2cc(OC)ccc2-n2c(C)nnc21: Criterion not met
COc1ccc(-c2nc(N3CCOCC3)c3sc(CN(C)c4ncc(C(=O)NO)cn4)cc3n2)cn1 [CUDC-907]: Criterion not met

Prompt: Given the entry Cn1ncc(Cl)c1-c1cc(C(=O)N[C@H](CN)Cc2cccc(F)c2)sc1Cl [Afuresertib] , would its reported drug sensitivity score be below 2?
Completion: Criterion met

Prompt: Do the same for COC12C(COC(N)=O)C3=C(C(=O)C(C)=C(N)C3=O)N1CC1NC12 (stereo in doubt) [Mitomycin C] please
Completion: Criterion met

Prompt: Do the same for Nc1ccccc1NC(=O)c1ccc(CNc2nccc(-c3cccnc3)n2)cc1 [Mocetinostat] please
Completion: Criterion not met

Prompt: Do the same for Cc1cc(OCc2nnc(SC3CCCC3)n2-c2cccnc2)ccc1-c1ccc(S(C)(=O)=O)cc1 [NMS-873] please
Completion: Criterion not met

Prompt: Do the same for O=C(O)CC[C@H]1CC[C@@](c2cc(F)ccc2F)(S(=O)(=O)c2ccc(Cl)cc2)CC1 [MK-0752] please
Completion: Criterion met

Prompt: Do the same for O=C(O)c1ccc2c(c1)nc(Nc1cccc(Cl)c1)c1ccncc12 [Silmitasertib] please
Completion: Criterion not met

Prompt: Do the same for OC[C@H]1O[C@@H](n2cnc3c2N=CNC[C@H]3O)C[C@@H]1O [Pentostatin] please
Completion: Criterion not met

Prompt: Do the same for CC[C@]1(O)C[C@H]2CN(CCc3c([nH]c4ccccc34)[C@@](C(=O)OC)(c3cc4c(cc3OC)N(C)[C@H]3[C@@](O)(C(=O)OC)[C@H](OC(C)=O)[C@]5(CC)C=CCN6CC[C@]43[C@@H]65)C2)C1 [Vinblastine] please
Completion: Criterion not met

Prompt: Do the same for COc1cc([C@@H]2c3cc4c(cc3[C@@H](O[C@@H]3O[C@@H]5CO[C@@H](C)O[C@H]5[C@H](O)[C@H]3O)[C@H]3COC(=O)[C@H]23)OCO4)cc(OC)c1O [Etoposide] please
Completion: Criterion not met

Prompt: Do the same for CCC(C)n1ncn(-c2ccc(N3CCN(c4ccc(OCC5COC(Cn6cncn6)(c6ccc(Cl)cc6Cl)O5)cc4)CC3)cc2)c1=O (stereo not given) [Itraconazole] please
Completion: Criterion met

Prompt: Do the same for Cc1[nH]nc(C(F)(F)F)c1Cc1sc2c(c1C(=O)N1C[C@](C)(O)CO1)c(=O)n(C)c(=O)n2C(C)C [AZD3965] please
Completion: Criterion not met

###

- System: DLD1 NRF2-WT
- Measurement Notes: drug sensitivity score (DSS) viability (DSS score); higher = more sensitive; extreme values may be limits of the assay
- Condition Summary: 72 h; CellTiter-Glo viability
Assay Readout: drug sensitivity score
Lab note: jot the number down without any unit.

Worked set:
COc1cc(Nc2c(C#N)cnc3cc(OCCCN4CCN(C)CC4)c(OC)cc23)c(Cl)cc1Cl: 10
CC(=O)Nc1ccc(C(=O)Nc2ccccc2N)cc1: 1.9
CN1CCN(C2CCN(C(=O)Nc3cc(Oc4ccc(NC(=O)C5(C(=O)Nc6ccc(F)cc6)CC5)c(F)c4)ccn3)CC2)CC1: 1.2
CC[C@H](Nc1ncnc2[nH]cnc12)c1nc2cccc(F)c2c(=O)n1-c1ccccc1: 1.6
COC(=O)C[C@](O)(CCCC(C)(C)O)C(=O)O[C@@H]1C(OC)=C[C@]23CCCN2CCc2cc4c(cc2[C@H]13)OCO4: 27.6

Prompt: Fill in: drug sensitivity score of `CN1CC[C@H](c2c(O)cc(O)c3c(=O)cc(-c4ccccc4Cl)oc23)[C@H](O)C1` is ___
Completion: 20.1

Prompt: Do the same for CC(C)C(=O)Nc1ccc([N+](=O)[O-])c(C(F)(F)F)c1 [Flutamide] please
Completion: 0.9

Prompt: Do the same for `C[C@@H](Oc1ccc2[nH]nc(/C=C/c3cnn(CCO)c3)c2c1)c1c(Cl)cncc1Cl` please
Completion: 1.4
